# Test system: OVISE (Ovarian Carcinoma)
# experiment: combination Emax (second highest fraction inhibited in the dose matrix, 72 h); higher = more inhibition; extreme values may be limits of the assay
reportedProperty: combination Emax
Respond numerically, and do not add a unit to the figure.

[in] Give combination Emax (OVISE (Ovarian Carcinoma)) of the following compound: CC(=O)Nc1cccc(-n2c(=O)n(C3CC3)c(=O)c3c(Nc4ccc(I)cc4F)n(C)c(=O)c(C)c32)c1 [Trametinib] + Cc1nc(-c2cn3c(n2)-c2ccc(-c4cnn(C(C)(C)C(N)=O)c4)cc2OCC3)n(C(C)C)n1 [Taselisib] (first compound max 1 µM, 7x7, partner max 10 µM)
[out] 0.696
